Target: CV S-protein construct 6 trimer TP31001F (SARS-CoV-2, UniProt P0DTC2 14-1208)
Test: SPR
What Kd was measured for each of the following?
Response body: numeric value in nM, unit text excluded.

Return Kd for the following binder: variant 6-38 (Fc fusion) VHH: EVQLVESGGGLVQPGGSLRLSCAASGNTFSGGFMGWFRQAPGKEREFVAVISSLSSKSYADSVKGRFTISADNSKNTAYLQMNSLKPEDTAVYYCAKVDSGYDYWGQGTLVTVSS 0.5

Identify measured Kd corresponding to variant 6-39 (Fc fusion) VHH: EVQLVESGGGLVQPGGSLRLSCAASGFTFSPSWMGWFRQAPGKEREFVAAISWSGGSTAYADSVKGRFTISADNSKNTAYLQMNSLKPEDTAVYYCHGLGEGDPYGDYEGYFDLWGQGTLVTVSS 0.1

Return value of Kd for input variant 6-43 (Fc fusion) VHH: EVQLVESGGGLVQPGGSLRLSCAASGRTFSSYAMMGWFRQAPGKEREFVASVNWDASQINYADSVKGRFTISADNSKNTAYLQMNSLKPEDTAVYYCTTLGAVYFDSSGYHDYFDYWGQGTLVTVSS , no commentary. 0.7

Give reported Kd value for variant 5-60 (Fc fusion) VHH: EVQLVESGGGLVQPGGSLRLSCAASGRSFSSHRMGWFRQAPGKEREFVAAIMWSGSHRNYADSVKGRFTISADNSKNTAYLQMNSLKPEDTAVYYCAAIAYEEGVYRWDWGQGTLVTVSS 0.8
